# Target System: rat maltase (partially purified alpha-glucosidase from intestinal rat powder)
# Protocol Text: Intestinal alpha-glucosidase assay, maltose substrate (Glucose GO Kit)
# Procedure: Intestinal alpha-glucosidases (rat maltase and sucrase): Intestinal alpha-glucosidases act upon 1,4-alpha-glucoside bonds, breaking down disaccharides to glucose. […] The reaction was stopped by a 5-minute incubation at 90° C. and the resultant glucose production is detected using Sigma's Glucose GO Kit. […] The IC50 was determined using a 4-PL curve fit and serves as the measure of relative inhibition of each test compound (see Table 3).
Readout Name: pIC50
Hey, just a heads up that pIC50 is the negative log base 10 of the concentration in molar.

These recorded examples may help you get a feel for the data.
>>> df
                                   compound                             target_system  assay_result
0  Cc1nc2cc(-c3ncccn3)ccc2n1CCCCCCN1C[C@H](O)[C@@H](O)[C@H](O)[C@H]1CO [Compound 1339]  rat maltase (partially purified alpha-glucosidase from intestinal rat powder)          7.85
1  COc1cc(NCCCCCCN2C[C@H](O)[C@@H](O)[C@H](O)[C@H]2CO)cc(C2=CCCO2)c1 [Compound 1147]  rat maltase (partially purified alpha-glucosidase from intestinal rat powder)          8.10
2  OC[C@@H]1[C@@H](O)[C@H](O)[C@@H](O)CN1Cc1ccc(CNc2ccc(-c3cccnn3)cc2)cc1 [Compound 1095]  rat maltase (partially purified alpha-glucosidase from intestinal rat powder)          7.96

Query: Given CS(=O)(=O)c1cc(NCc2ccc(CN3C[C@H](O)[C@@H](O)[C@H](O)[C@H]3CO)cc2)cc(-c2cccnn2)c1 [Compound 1058] , state its recorded pIC50.
Result: 8.10

Query: Given OC[C@@H]1[C@@H](O)[C@H](O)[C@@H](O)CN1CCCCCCNc1cc(C2CC2)cc(N2CCOCC2)c1 [Compound 1006] , state its recorded pIC50.
Result: 8.00
